// data source = patent US20250027068

Target: pooled human IgG
property.label: Enzyme Activity Endpoint Assay (purified): scIgG
A bare number is not enough; add the unit after it.

- PRT-639 (protein) MQITSVWTKGVTPLTPEQFRYNNEDVIHAPYLAHQGWYDITKTFNGKDDLLCGAATAGNMLHWWFDQNKTEIEAYLSKHPEKQKIIFNNQELFDLKAAIDTKDSQTNSQLFNYFRDKAFPNLSARQLGVMPDLVLDMFINGYYLNVFKTQSTDVNRPYQDKDKRGGIFDAVFTRGDQTTLLTARHDLKNKGLNDISTIIKQELTEGRALALSHTYANVSISHVINLWGADFNAEGNLEAIYVTDSDADASIGMKKYFVGINAHGHVAISAKKIEGENIGAQVLGLFTLSSGKDIWQKLSLEHHHHHH: 0 ng/µL
- PRT-678 (protein) MQITTVWTKGVTPLTPEQFRYNNEEVIHAPYKAGQGWYDITKVFDGKDNLLCGAATAGNMLHWWFDQNKTEIEAYLSKHPEKQKIIFNNQELFDLKRAIDDKDSQTNSQLFNYFRDKAFPNLSARQLGVMPDLVLDMFINGYYLNVFKTQSTDVNRPYQDPDKRGGIFDDVFGKGDQTTLLTARHDLKNLGLEDISTIIKQELRNGRALALSHTYANVSISHVINLWGADFNAEGNLSAIYVTDSDANNSIGMKKYKVGYNAHGRVAISAKKIEGENIGAQVLGLFTLSSGKDIWQKLSLEHHHHHH: 0 ng/µL

For the protein PRT-666 (protein) MQITSVWTKGVTPPTPEQFRNNNEDVFHAPYLANQGWYDITKTFNGKDDLLCGAATAGNMLHWWFDQNKTEIEAYLKKHPEKQKIIFNNQELFDLKKAIDTKDSQTNSQLFNYFRDKAFPNLSARQLGVMPDLVLDMFINGYYLNVTKTQSTDVNRPYQDKDKRGGIFDAVFTRGDQTTLLTSRHDLKNKGLNEISDLIKQELTEGKALALSHTYANVSINHVINLWGADFNAEGNLEAIYVTDSDSNASIGMKKYFVGVNASGKVAISAKKIEGENIGAQVLGLFTLSSGKDIWQKLSLEHHHHHH , report Enzyme Activity Endpoint Assay (purified): scIgG.
0 ng/µL

Could you please provide reported Enzyme Activity Endpoint Assay (purified): scIgG for PRT-72 (protein) MANQEIRYSEVTPYHVTSVWTKGVTPPAKFTQGEDVFHAPYVANQGWYDITKTFNGKDDLLCGAATAGNMLHWWFDQNKEYIEAYLKKHPEKQKIMFGDQELLDVRKVINTKGDQTNSELFNYFRDKAFPYLSARRLGVMPDLVLDMFINGYYLNVTKTQTTDVNRTYQEKDRRGGIFDAVFTRGDQSKLLTSRHDFKEKNLKEISDLIKKELTEGKALGLSHTYANVRINHVINLWGADFDSNGNLKAIYVTDSDSNASIGMKKYFVGVNSAGKVAISAKEIKEDNIGAQVLGLFTLSTGQDIWNQTN ? Thanks!
8 ng/µL
